# Tested on: Jurkat (Acute lymphoblastic leukaemia)
# method_notes: Antileukemic activity, cell viability (CCK-8 Cell Counting Kit)
# Format: cell-based
# condition: Homo sapiens, 18 h incubation, compounds 0 - 100 µM, read-out: IC50 Cancer cells Jurkat (Acute lymphoblastic leukaemia)
quantity: IC50 (µM)
Express your answer in µM, writing the number without its unit.

Solved cases (2 shown):
compound	readout_unit	IC50
CC(=O)OC[C@H]1O[C@H](Sc2ccccc2)[C@H](OC(C)=O)[C@@H](N=C=S)[C@@H]1OC(C)=O	µM	14.4
CC(=O)OC[C@H]1O[C@@H](S(=O)(=O)c2ccccc2)[C@H](OC(C)=O)[C@@H](N=C=S)[C@@H]1OC(C)=O	µM	24.9

Query: Provide the documented IC50 with Jurkat (Acute lymphoblastic leukaemia) as the system for `CCS[C@H]1O[C@H](COC(C)=O)[C@@H](OC(C)=O)[C@H](N=C=S)[C@H]1OC(C)=O`
Result: 12.5

Query: Quick check: IC50 on Jurkat (Acute lymphoblastic leukaemia), item CC(=O)OC[C@H]1O[C@@H]([S@@+]([O-])c2ccccc2)[C@H](OC(C)=O)[C@@H](N=C=S)[C@@H]1OC(C)=O [(SS)-18β] ?
Result: 20
